# System under test: NAD-dependent protein deacetylase sirtuin-1 (Homo sapiens) (UniProt Q96EB6)
# Sequence (Q96EB6 whole entry): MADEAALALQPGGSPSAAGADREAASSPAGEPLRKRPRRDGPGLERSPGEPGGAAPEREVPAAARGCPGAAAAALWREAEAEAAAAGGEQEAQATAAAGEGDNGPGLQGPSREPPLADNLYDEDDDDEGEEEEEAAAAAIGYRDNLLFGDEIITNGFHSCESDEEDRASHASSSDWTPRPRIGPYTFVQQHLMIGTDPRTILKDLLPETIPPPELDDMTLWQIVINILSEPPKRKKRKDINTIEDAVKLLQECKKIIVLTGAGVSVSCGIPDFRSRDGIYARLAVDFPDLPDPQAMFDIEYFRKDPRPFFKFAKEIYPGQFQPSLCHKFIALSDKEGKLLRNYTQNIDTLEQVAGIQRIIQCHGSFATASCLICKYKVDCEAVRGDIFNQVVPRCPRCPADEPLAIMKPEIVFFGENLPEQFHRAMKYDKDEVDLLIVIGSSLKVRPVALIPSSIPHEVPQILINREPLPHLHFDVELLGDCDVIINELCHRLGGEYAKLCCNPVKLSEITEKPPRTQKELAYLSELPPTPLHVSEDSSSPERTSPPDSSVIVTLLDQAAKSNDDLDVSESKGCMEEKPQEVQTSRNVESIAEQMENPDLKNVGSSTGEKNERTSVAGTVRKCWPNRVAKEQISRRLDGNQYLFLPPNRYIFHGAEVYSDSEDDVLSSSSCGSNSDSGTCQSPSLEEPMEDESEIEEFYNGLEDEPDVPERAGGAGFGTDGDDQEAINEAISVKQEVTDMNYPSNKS
# Test conditions: dose 20.0 µM
# Description: Binding affinity to human recombinant truncated Sirtuin-1 expressed in Escherichia coli assessed as change in melting temperature at 20 uM by SYPRO orange dye based thermal shift assay
Measured endpoint: ΔTm (°C)

Chem smiles: COc1ccc(N2CCN(c3nc(-c4ccccc4)nc4ccccc34)CC2)cc1
Experimental value: 1.6

Chem smiles: O=S(=O)(NCCc1c[nH]c2ccccc12)c1cc(Cl)cc(Cl)c1
Experimental value: 1

Chem smiles: O=C(Nc1ccccc1)Nc1ccc(NC(=O)c2ccc(Br)cc2)cc1
Experimental value: 2.1

(1) O=C(CCc1c[nH]c2ccccc12)NNC(=O)CCc1c[nH]c2ccccc12
(2) O=C(NCCc1c[nH]c2ccccc12)c1ccccc1O
(3) O=C(CCc1ccccc1O)NCCc1c[nH]c2ccccc12
(4) NC(=O)c1ccc(N2CCN(C(c3ccccc3)c3ccccc3)CC2)c([N+](=O)[O-])c1
[Q] Please produce an ascending ranking of these compounds based on ΔTm. Reply: labels, ordered per the request.
[A] 4, 2, 1, 3
(4: 1 °C, 2: 1.8 °C, 1: 2.8 °C, 3: 12.9 °C)
